# System: HCT116 (colorectal cancer) cells
# Method: Resazurin-based cell viability assay using colorectal cancer cells
# Cond: Homo sapiens, HCT-116, 72 hr incubation
pIC50: −log10 of the molar value.
Readout name: pIC50

{"columns": ["Molecule", "Readout name", "Measured result"],
 "data": [
  ["O=C1C=CCCN1C(=O)C=C(c1ccccc1)c1ccccc1", "pIC50", 5.19],
  ["O=C1C=CCCN1C(=O)/C=C/c1cnc2c(n1)OCCO2", "pIC50", 5.65],
  ["CC(C)(C)CN1CCC(/C=C/C(=O)N2CCC=CC2=O)CC1", "pIC50", 5.76],
  ["CC(=O)N1CCC(/C=C/C(=O)N2CCC=CC2=O)CC1", "pIC50", 5.24],
  ["O=C1C=CCCN1C(=O)/C=C/c1ncccn1", "pIC50", 5.82]
]}

[I] O=C1C=CC(O)CN1C(=O)/C=C/c1ncccn1 (centres unmarked)
[II] O=C1C=CCCN1C(=O)C=C1c2ccccc2-c2ccccc21
Task: When the recorded pIC50 values are compared, which is smaller: that of I or that of II ? Pick one and reply with its label.
Output: I

[1] O=C1C=CCCN1C(=O)/C=C/C1CCNCC1
[2] O=C1C=CC(F)CN1C(=O)/C=C/c1ncccn1 (centres unmarked)
[3] C/C(=C\C1CCN(C(=O)OC(C)(C)C)CC1)C(=O)N1CCC=CC1=O
Task: hey, can you rank those molecules up there by pIC50? biggest number first please Submit the labels in the order that the ranking request calls for.
Output: 2, 1, 3

[1] COc1cc(/C=C/S(=O)(=O)N2CCC=CC2=O)cc2c1OCCO2
[2] C/C(=C/C1CCN(C(=O)Nc2ccc(F)cc2)CC1)C(=O)N1CCC=CC1=O
[3] O=C1C=CCCN1S(=O)(=O)/C=C/c1ncccn1
[4] Cc1noc(/C=C/C(=O)N2CCC=CC2=O)n1
Task: Ranking field: pIC50; order: falling. // ordering of labels required in reply
Output: 4, 1, 3, 2
(4: 6.02, 1: 5.73, 3: 5.51, 2: 5.31)

[a] C/C(=C\C1CCNCC1)C(=O)N1CCC=CC1=O [Compound 88, 2,2,2-trifluoroacetate]
[b] O=C1C=CCCN1C(=O)/C=C/C1CCN(S(=O)(=O)c2ccccc2)CC1
[c] O=C1C=CCCN1C(=O)/C=C/C1CCCCC1
Task: Hello, I need these entries ordered by pIC50, highest reading first. Thanks! List the labels, following the order given in the request.
Output: b, c, a

Measured values drawn from patent US11485725B2 for this set.
